pIC50: −log10 of the molar value.
Entries with reported pIC50 on ROCK2 (Homo sapiens (Human))
Sequence (O75116 whole entry, species assumed): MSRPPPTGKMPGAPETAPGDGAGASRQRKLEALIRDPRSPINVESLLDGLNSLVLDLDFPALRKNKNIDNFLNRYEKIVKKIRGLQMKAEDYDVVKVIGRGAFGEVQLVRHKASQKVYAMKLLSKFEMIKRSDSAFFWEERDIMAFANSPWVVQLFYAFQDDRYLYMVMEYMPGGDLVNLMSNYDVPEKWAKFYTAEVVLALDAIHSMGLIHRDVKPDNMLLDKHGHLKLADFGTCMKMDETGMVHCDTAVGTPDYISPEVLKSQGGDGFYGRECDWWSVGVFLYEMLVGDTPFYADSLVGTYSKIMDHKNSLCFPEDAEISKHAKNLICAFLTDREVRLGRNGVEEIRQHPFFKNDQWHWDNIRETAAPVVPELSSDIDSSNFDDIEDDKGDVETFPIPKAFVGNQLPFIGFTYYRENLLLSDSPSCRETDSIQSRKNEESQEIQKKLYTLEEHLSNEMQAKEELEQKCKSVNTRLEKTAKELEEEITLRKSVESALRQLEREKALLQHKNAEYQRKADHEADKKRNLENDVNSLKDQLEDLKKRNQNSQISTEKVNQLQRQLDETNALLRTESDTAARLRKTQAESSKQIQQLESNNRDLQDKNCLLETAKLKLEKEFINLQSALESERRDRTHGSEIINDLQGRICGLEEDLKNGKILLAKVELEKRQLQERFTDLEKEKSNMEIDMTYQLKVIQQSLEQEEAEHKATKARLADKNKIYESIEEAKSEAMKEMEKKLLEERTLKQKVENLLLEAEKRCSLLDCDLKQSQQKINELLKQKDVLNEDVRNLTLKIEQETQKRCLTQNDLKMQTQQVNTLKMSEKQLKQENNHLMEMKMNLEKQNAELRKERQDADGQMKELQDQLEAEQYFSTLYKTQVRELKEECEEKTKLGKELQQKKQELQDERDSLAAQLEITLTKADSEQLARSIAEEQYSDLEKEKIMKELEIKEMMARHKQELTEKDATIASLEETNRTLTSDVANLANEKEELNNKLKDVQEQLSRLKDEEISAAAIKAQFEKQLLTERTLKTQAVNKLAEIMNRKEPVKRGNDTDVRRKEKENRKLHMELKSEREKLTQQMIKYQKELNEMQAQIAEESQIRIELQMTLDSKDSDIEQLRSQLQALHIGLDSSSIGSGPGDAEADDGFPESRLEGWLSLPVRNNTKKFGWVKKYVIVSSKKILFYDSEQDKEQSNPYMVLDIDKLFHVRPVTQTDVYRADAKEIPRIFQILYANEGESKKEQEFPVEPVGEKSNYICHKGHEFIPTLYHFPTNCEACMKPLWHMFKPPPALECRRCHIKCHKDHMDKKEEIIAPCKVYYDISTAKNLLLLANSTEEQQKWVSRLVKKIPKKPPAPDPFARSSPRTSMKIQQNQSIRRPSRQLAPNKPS

Query block: Report pIC50 on ROCK2 (Homo sapiens (Human)) for this entry: COCC(=O)N1CCC2(CC1)CN(c1ccc(-c3cn[nH]c3)c(OC)n1)C(=O)N2Cc1cccc(OC)c1
Result block: > 8.52

Query block: Report pIC50 on ROCK2 (Homo sapiens (Human)) for this entry: CCC(CC)CN1CCC2(CC1)CN(c1ccc(-c3cn[nH]c3)cc1)C(=O)N2Cc1cccc(OC)c1
Result block: > 8.52

Query block: Report pIC50 on ROCK2 (Homo sapiens (Human)) for this entry: COC(=O)N1CCC2(CC1)CN(c1ncc(-c3cn[nH]c3)c(OC)n1)C(=O)N2Cc1cccc(OC)c1
Result block: 7.52 to 8.52

Query block: Report pIC50 on ROCK2 (Homo sapiens (Human)) for this entry: COc1cccc(CN2C(=O)N(c3ccc(-c4cn[nH]c4)cn3)CC23CCN(C(=O)C(C)O)CC3)c1 (stereo not shown)
Result block: 7.52 to 8.52

Query block: Report pIC50 on ROCK2 (Homo sapiens (Human)) for this entry: CCc1nc(N2CC3(CCN(C(=O)CN(C)C)CC3)N(Cc3cccc(OC)c3)C2=O)ccc1-c1cn[nH]c1
Result block: > 8.52

Query block: Report pIC50 on ROCK2 (Homo sapiens (Human)) for this entry: COc1cccc(CN2C(=O)N(c3ccc(-c4cn[nH]c4)cn3)CC23CCN(C(=O)OC(C)(C)C)CC3)c1
Result block: 7.52 to 8.52

Query block: Report pIC50 on ROCK2 (Homo sapiens (Human)) for this entry: COc1cccc(CN2C(=O)N(c3ccc(-c4cn[nH]c4)cn3)CC23CCN(CCO)CC3)c1
Result block: > 8.52

// data source = patent US10787450B2
